# Tested on: OVCAR-3 ovarian
# protocol.notes: NCI-60 one-dose screen, 48 h (100 = growth as untreated, 0 = no growth, -100 = all killed)
# condition.parameters: 10 µM
Compounds without any hit were thinned out: in the full panel of roughly 83,000, 20% have a hit.
growth less than 80% is rule met; growth greater than or equal to 80% is rule not met.

Consider the following illustrative entries.
In [3]: df
Out[3]:
                                   molecule  answer_label
0  CCOC(=O)C1C(C(=O)OCC)C2C(=O)C3C(C(=O)OCC)C(C(=O)OCC)C3C(=O)C12 (configuration not stated)  rule not met
1          Fc1ccc(C(c2ccc(F)cc2)C(Cl)Cl)cc1  rule not met

input: For COc1cccc(-c2nc3sccn3c2-c2cccc(S(C)(=O)=O)c2)c1 , is the recorded growth below the cut-off of 80%?
output: rule not met

input: Consider Nc1nc(-c2cccnc2)nc2c1sc(=S)n2-c1ccccc1 . Does its growth lie strictly below 80%?
output: rule not met

input: Threshold test, growth < 80%: COc1ccc(/C=C2\CCCC3=C2NC(N)=NC3c2ccc(OC)c(OC)c2)cc1OC (configuration not stated)
output: rule met

input: # check: growth < 80% for COc1ccc(-c2cc(-c3ccccc3)nc(SCCCC(=O)NO)n2)cc1
output: rule met

input: Dear reviewer, please state whether O=C(CCn1cnc2c(cc(-c3ccccc3)n2-c2ccccc2)c1=O)Nc1ccc(F)cc1 has growth strictly beneath 80%.
output: rule met

input: Lab note: confirm whether the reported growth for this molecule is below 80%, equality not counting. molecule: COc1cc(N)c2ncccc2c1SC
output: rule not met

input: Would you kindly verify if growth of COc1ccc(-c2cc(-c3ccc(Cl)cc3)nc(SCCCC(=O)NO)n2)cc1 is strictly less than 80%?
output: rule met

input: Lab note: confirm whether the reported growth for this molecule is below 80%, equality not counting. molecule: O=C(CCl)Oc1ccc(OC(=O)CCl)cc1
output: rule met

input: Threshold test, growth < 80%: CCOc1ccccc1/C=N\N=C(\N)N/N=C/c1ccccc1OCC
output: rule met

###

# Tested on: HS 578T breast
# protocol.notes: NCI-60 one-dose screen, 48 h (100 = growth as untreated, 0 = no growth, -100 = all killed)
# condition.parameters: 10 µM
This is part of a sample that, as a whole, favours compounds with a hit. Of some 83,000 tested, about 20% had one in any assay.
growth of 60% or higher: Criterion met. Under 60%: Criterion not met.

input: Hi, just wondering whether c1cnc2[nH]cc(-c3nc(-c4ccsc4)cs3)c2c1 shows growth of 60% or higher.
output: Criterion met

input: hey, is growth for this one >= 60%? O=C(CCl)Oc1ccc(OC(=O)CCl)cc1
output: Criterion met

input: Item O=C1CSC(=S)N1/N=C/c1ccc(Cl)s1 with growth of 60% or above?
output: Criterion met

input: Quick check, growth >= 60%? COc1cc(-c2nn(-c3cccc(NC(=O)CN4CCOCC4)c3)cc2-c2cccnc2)ccc1Cl
output: Criterion met

input: Hi team, for CC(=O)OC1C=CC(OC(C)=O)O1 (stereo unspecified) , is the recorded growth at or above 60%?
output: Criterion met

input: Confirm if growth reported for the compound CCn1c(SCc2ccc(C)cc2)nnc1-c1nn(-c2ccc(Cl)cc2Cl)c(-c2ccc(Cl)cc2)c1C is 60% or above.
output: Criterion not met

input: Would you say Cc1ccc(NCCN(C)CC(C)O)c2c(=O)c3ccccc3sc12 (stereo unspecified) shows growth at minimum 60%?
output: Criterion not met
